measured_on: furin, P09958
Sequence (P09958 whole entry): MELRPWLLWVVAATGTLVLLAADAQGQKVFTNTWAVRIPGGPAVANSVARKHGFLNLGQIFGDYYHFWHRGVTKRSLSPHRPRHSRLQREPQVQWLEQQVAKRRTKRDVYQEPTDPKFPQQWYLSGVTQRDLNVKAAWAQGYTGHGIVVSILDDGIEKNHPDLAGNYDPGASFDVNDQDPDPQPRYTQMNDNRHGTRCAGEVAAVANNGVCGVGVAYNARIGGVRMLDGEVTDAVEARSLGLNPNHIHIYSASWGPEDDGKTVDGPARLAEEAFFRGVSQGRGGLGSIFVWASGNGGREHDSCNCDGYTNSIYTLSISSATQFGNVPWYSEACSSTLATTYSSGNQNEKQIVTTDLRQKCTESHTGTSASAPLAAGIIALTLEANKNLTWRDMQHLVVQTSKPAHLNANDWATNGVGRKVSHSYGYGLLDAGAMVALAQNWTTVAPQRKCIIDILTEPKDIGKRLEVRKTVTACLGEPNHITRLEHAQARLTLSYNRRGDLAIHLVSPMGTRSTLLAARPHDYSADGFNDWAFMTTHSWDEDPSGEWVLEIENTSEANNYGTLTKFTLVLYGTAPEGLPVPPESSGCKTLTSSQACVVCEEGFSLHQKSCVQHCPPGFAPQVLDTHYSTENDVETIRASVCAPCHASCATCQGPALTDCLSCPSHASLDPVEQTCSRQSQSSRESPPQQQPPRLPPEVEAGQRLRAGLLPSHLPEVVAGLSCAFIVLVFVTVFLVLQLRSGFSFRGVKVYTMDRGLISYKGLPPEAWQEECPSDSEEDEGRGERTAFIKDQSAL
experimental_protocol: furin cleavage Z-score vs untreated control; higher = more cleavage, active = 3.5 or more, inactive = 1 or less, 8 variable residues between constant flanks;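 note: purified furin at 1:10 enzyme:substrate in 50 mM HEPES pH 7.5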
measurement_context: 15 min
This is one part of the list. How many sequences the whole screen found active is unknown.
measurement_kind: furin cleavage Z-score
Numbers only.

Here are 3 sequences together with their reported answers.
• CADGPDGPEEAGNASASA [CS6] = -0.697
• CAECHSTDATAGNASASA [HC819] = -1.11
• CAGNEGCGWAAGNASASA [HC204] = -0.206

We next turn to a different sequence, shown below.
Using the record for CAEVVESTWVAGNASASA [HC133] , report its furin cleavage Z-score.
-0.27
